Measured values drawn from PubChem BioAssay (Tox21) for this set.

ASSAYED TARGET: Muscarinic acetylcholine receptor M1 (Homo sapiens)
METHOD DESCRIPTION: Cholinergic receptor muscarinic 1 (CHRM1) small molecule agonists, cell-based qHTS assay (AID 1963589); further: nearly all actives have a fitted effect of over 35% in size
EXPERIMENTAL SETUP: CHRM1-CHO cells, agonist mode, calcium flux fluorescence; series mostly up to 76.8 µM
The source made the active and inactive calls. The call rests on the fitted dose curve.
Labels: true (1) (active), false (0) (inactive)

[
  {
    "MOLECULE": "FC(F)(F)c1ccc(Cl)c(Cl)c1",
    "CATEGORY": "false (0)"
  },
  {
    "MOLECULE": "O=C1CCCCCN1",
    "CATEGORY": "false (0)"
  },
  {
    "MOLECULE": "O=C1OC2(c3ccccc31)c1cc(I)c(O)c(I)c1Oc1c2cc(I)c(O)c1I",
    "CATEGORY": "true (1)"
  },
  {
    "MOLECULE": "COCC(C)O (stereo unspecified)",
    "CATEGORY": "false (0)"
  },
  {
    "MOLECULE": "Cc1ccccc1C=O",
    "CATEGORY": "false (0)"
  },
  {
    "MOLECULE": "CCCCCCCC/C=C\\CCCCCCCC(=O)O",
    "CATEGORY": "false (0)"
  },
  {
    "MOLECULE": "C=C(CC(=O)O)C(=O)O",
    "CATEGORY": "false (0)"
  },
  {
    "MOLECULE": "CCC[C@H](N[C@@H](C)C(=O)N1[C@H](C(=O)O)C[C@@H]2CCCC[C@@H]21)C(=O)OCC",
    "CATEGORY": "false (0)"
  },
  {
    "MOLECULE": "c1ccc2[nH]ccc2c1",
    "CATEGORY": "false (0)"
  },
  {
    "MOLECULE": "C#CCN(C)Cc1ccccc1",
    "CATEGORY": "false (0)"
  },
  {
    "MOLECULE": "C=C(C)C(=O)O[C@H]1C[C@@H]2CC[C@@]1(C)C2(C)C",
    "CATEGORY": "false (0)"
  },
  {
    "MOLECULE": "N#Cc1ccccc1",
    "CATEGORY": "false (0)"
  },
  {
    "MOLECULE": "C[N+](C)(C)CCCCCC[N+](C)(C)C",
    "CATEGORY": "false (0)"
  },
  {
    "MOLECULE": "CC(C)(CO)COC(=O)C(C)(C)CO",
    "CATEGORY": "false (0)"
  },
  {
    "MOLECULE": "Cc1ccc2c(n1)Oc1ccc(C(C)C(=O)OCC(=O)N(C)C)cc1C2 (stereo unspecified)",
    "CATEGORY": "false (0)"
  },
  {
    "MOLECULE": "CC(=O)c1ccccc1",
    "CATEGORY": "false (0)"
  },
  {
    "MOLECULE": "CCCCCCCCCCCO",
    "CATEGORY": "false (0)"
  },
  {
    "MOLECULE": "CCCCOCCOCCO",
    "CATEGORY": "false (0)"
  },
  {
    "MOLECULE": "O=C(O)CCCCC(=O)O",
    "CATEGORY": "false (0)"
  },
  {
    "MOLECULE": "CC(=O)OCC(=O)[C@@]12N=C(C)O[C@@H]1C[C@H]1[C@@H]3CCC4=CC(=O)C=C[C@]4(C)[C@H]3[C@@H](O)C[C@@]12C",
    "CATEGORY": "false (0)"
  },
  {
    "MOLECULE": "CN1C(=O)CC[C@H]1c1cccnc1",
    "CATEGORY": "false (0)"
  },
  {
    "MOLECULE": "O=S(=O)(O)c1ccc2cc(O)ccc2c1",
    "CATEGORY": "false (0)"
  },
  {
    "MOLECULE": "Cc1ccc(Cl)cc1",
    "CATEGORY": "false (0)"
  },
  {
    "MOLECULE": "CCCCCCCC(=O)O",
    "CATEGORY": "false (0)"
  },
  {
    "MOLECULE": "CCCCCCCCCCC(CO)CCCCCCCC (stereo unspecified)",
    "CATEGORY": "false (0)"
  },
  {
    "MOLECULE": "CCCCCCCCCCCCCO",
    "CATEGORY": "false (0)"
  },
  {
    "MOLECULE": "COc1ccc(OC)cc1",
    "CATEGORY": "false (0)"
  },
  {
    "MOLECULE": "CC(=O)c1nccs1",
    "CATEGORY": "false (0)"
  },
  {
    "MOLECULE": "NCCN1CCNCC1",
    "CATEGORY": "false (0)"
  },
  {
    "MOLECULE": "OCCOCCN1CCN(C(c2ccccc2)c2ccc(Cl)cc2)CC1 (stereo unspecified)",
    "CATEGORY": "false (0)"
  },
  {
    "MOLECULE": "C/C=C(C)/C=C/C=C(C)C",
    "CATEGORY": "false (0)"
  }
]

###

ASSAYED TARGET: Muscarinic acetylcholine receptor M1 (Homo sapiens)
METHOD DESCRIPTION: Cholinergic receptor muscarinic 1 (CHRM1) small molecule antagonists, cell-based qHTS assay (AID 1963588); further: nearly all actives have a fitted effect of over 40% in size
EXPERIMENTAL SETUP: CHRM1-CHO antagonist mode, calcium flux fluorescence; series mostly up to 61.5 µM
Inconclusive results are not listed. Activity calls are given as the source filed them. Calls follow the shape of the full dose curve.

[
  {
    "COMPOUND": "CC(C)=CCl",
    "ASSAYED TARGET": "Muscarinic acetylcholine receptor M1 (Homo sapiens)",
    "outcome": "inactive"
  },
  {
    "COMPOUND": "Nc1ccc(S(=O)(=O)Nc2cnc3ccccc3n2)cc1",
    "ASSAYED TARGET": "Muscarinic acetylcholine receptor M1 (Homo sapiens)",
    "outcome": "inactive"
  },
  {
    "COMPOUND": "O=C1OC(c2ccc(O)cc2)(c2ccc(O)cc2)c2ccccc21",
    "ASSAYED TARGET": "Muscarinic acetylcholine receptor M1 (Homo sapiens)",
    "outcome": "inactive"
  },
  {
    "COMPOUND": "C=C[C@@]1(C)CC(=O)[C@]2(O)[C@@]3(C)[C@@H](O)CCC(C)(C)[C@@H]3[C@H](O)[C@H](OC(C)=O)[C@@]2(C)O1",
    "ASSAYED TARGET": "Muscarinic acetylcholine receptor M1 (Homo sapiens)",
    "outcome": "inactive"
  },
  {
    "COMPOUND": "CC(=O)OC(C)(C)C1CC=C(C)CC1 (stereo not drawn)",
    "ASSAYED TARGET": "Muscarinic acetylcholine receptor M1 (Homo sapiens)",
    "outcome": "inactive"
  },
  {
    "COMPOUND": "CCCCCCCCCC(=O)OC",
    "ASSAYED TARGET": "Muscarinic acetylcholine receptor M1 (Homo sapiens)",
    "outcome": "inactive"
  },
  {
    "COMPOUND": "COc1ccc(C(Cl)=C(c2ccc(OC)cc2)c2ccc(OC)cc2)cc1",
    "ASSAYED TARGET": "Muscarinic acetylcholine receptor M1 (Homo sapiens)",
    "outcome": "inactive"
  },
  {
    "COMPOUND": "CC(=O)c1ccccn1",
    "ASSAYED TARGET": "Muscarinic acetylcholine receptor M1 (Homo sapiens)",
    "outcome": "inactive"
  },
  {
    "COMPOUND": "OC[C@]1(O)OC[C@@H](O)[C@H](O)[C@@H]1O",
    "ASSAYED TARGET": "Muscarinic acetylcholine receptor M1 (Homo sapiens)",
    "outcome": "inactive"
  },
  {
    "COMPOUND": "Cc1ccc(N)c(S(=O)(=O)O)c1",
    "ASSAYED TARGET": "Muscarinic acetylcholine receptor M1 (Homo sapiens)",
    "outcome": "inactive"
  },
  {
    "COMPOUND": "NC(N)=O",
    "ASSAYED TARGET": "Muscarinic acetylcholine receptor M1 (Homo sapiens)",
    "outcome": "inactive"
  },
  {
    "COMPOUND": "CC(C)(C)C1CCC(O)CC1 (stereo not drawn)",
    "ASSAYED TARGET": "Muscarinic acetylcholine receptor M1 (Homo sapiens)",
    "outcome": "inactive"
  },
  {
    "COMPOUND": "NCCNc1cccc2ccccc12",
    "ASSAYED TARGET": "Muscarinic acetylcholine receptor M1 (Homo sapiens)",
    "outcome": "inactive"
  }
]

###

METHOD DESCRIPTION: p53 small molecule agonists, cell-based qHTS assay with rat liver microsomes (AID 1963578)
EXPERIMENTAL SETUP: HCT-116 p53RE-bla, beta-lactamase ratio, 16 h; series mostly up to 66 µM
Results filed as inconclusive are left out. The source made the active and inactive calls. Calls come from the whole dose curve.
QUANTITY MEASURED: outcome

[
  {
    "MOLECULE": "CCCCCC1C(=O)CCC1CC(=O)OC (stereo not given)",
    "MEASURED VALUE": "inactive"
  },
  {
    "MOLECULE": "CC(C)Cc1ccccc1",
    "MEASURED VALUE": "inactive"
  },
  {
    "MOLECULE": "COC(=O)CCC(=O)OC",
    "MEASURED VALUE": "inactive"
  },
  {
    "MOLECULE": "CC(C)=CCO",
    "MEASURED VALUE": "inactive"
  },
  {
    "MOLECULE": "CC(=O)Nc1ccc(CC(=O)O)cc1",
    "MEASURED VALUE": "inactive"
  },
  {
    "MOLECULE": "CCCCCNCCCCC",
    "MEASURED VALUE": "inactive"
  },
  {
    "MOLECULE": "Cc1cc(C(C)(C)C)c(O)c(C(C)(C)C)c1",
    "MEASURED VALUE": "inactive"
  },
  {
    "MOLECULE": "O=[N+]([O-])c1ccccc1C(F)(F)F",
    "MEASURED VALUE": "inactive"
  },
  {
    "MOLECULE": "CN(C)C=O",
    "MEASURED VALUE": "inactive"
  },
  {
    "MOLECULE": "COc1ccccc1[N+](=O)[O-]",
    "MEASURED VALUE": "inactive"
  },
  {
    "MOLECULE": "OCCCc1ccccc1",
    "MEASURED VALUE": "inactive"
  },
  {
    "MOLECULE": "COc1ccc(C(=O)c2ccccc2O)c(O)c1",
    "MEASURED VALUE": "inactive"
  },
  {
    "MOLECULE": "CC1(C)S[C@@H]2[C@H](NC(=O)COc3ccccc3)C(=O)N2[C@H]1C(=O)O",
    "MEASURED VALUE": "inactive"
  },
  {
    "MOLECULE": "COC(=O)c1cccc(C(=O)OC)c1",
    "MEASURED VALUE": "inactive"
  },
  {
    "MOLECULE": "C=CC(=O)OCCOCCOCCOCCOC(=O)C=C",
    "MEASURED VALUE": "inactive"
  }
]
